Target: T1, 4H3378-AA
T1 chain: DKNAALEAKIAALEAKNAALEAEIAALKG
Assay: two-hybrid library CCmax;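 further: natural log of median RNA to DNA barcode read ratio; higher means stronger binding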
Conditions: mean of both orientations
readout-kind: interaction score

Solved entries (count: 3):
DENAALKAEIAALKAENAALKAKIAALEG [4H1629-AA] = -1.39
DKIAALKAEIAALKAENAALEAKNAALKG [4H2648-AA] = -1.8
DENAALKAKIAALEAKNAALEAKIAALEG [4H1845-AA] = -1.04

# input for lookup
Qu. For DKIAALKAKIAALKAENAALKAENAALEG [4H2907-AA] , what is its reported interaction score?
Ans. -1.66
